# study.system: T1, LAG-3-hFc protein (human LAG-3 extracellular region with hFc tag) (human, UniProt P18627 23-450)
# T1 construct: also called hLAG-3-hFc; LAG-3 protein; not shown: human IgG Fc fragment (hFc) of the pCpC vector
# T1 sequence: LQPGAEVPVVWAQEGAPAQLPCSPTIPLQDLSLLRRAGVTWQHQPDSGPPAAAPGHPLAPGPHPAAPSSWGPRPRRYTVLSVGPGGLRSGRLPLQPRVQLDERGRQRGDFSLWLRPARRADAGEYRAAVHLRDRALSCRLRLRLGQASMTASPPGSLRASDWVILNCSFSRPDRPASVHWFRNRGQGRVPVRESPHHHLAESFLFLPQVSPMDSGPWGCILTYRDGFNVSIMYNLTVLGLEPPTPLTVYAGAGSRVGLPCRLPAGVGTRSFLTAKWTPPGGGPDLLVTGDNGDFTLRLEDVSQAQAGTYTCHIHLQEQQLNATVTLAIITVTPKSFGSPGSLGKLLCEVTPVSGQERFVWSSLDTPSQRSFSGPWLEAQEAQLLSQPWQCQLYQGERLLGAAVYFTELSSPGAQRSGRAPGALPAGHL
# assay.procedure: FACS, inhibition of LAG-3-hFc binding to MHC II on Raji cells, antibody 0.823 nM
Would you kindly list Inhibition rate (%) for each of these binders?
Answers are plain numbers, in %.

405B8H3 mouse-human chimeric antibody (antibody, V domains shown, also called mAb103-405B8H3) VH: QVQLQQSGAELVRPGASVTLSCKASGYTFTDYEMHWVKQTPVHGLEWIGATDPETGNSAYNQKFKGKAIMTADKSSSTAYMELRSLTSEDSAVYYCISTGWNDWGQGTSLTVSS VL: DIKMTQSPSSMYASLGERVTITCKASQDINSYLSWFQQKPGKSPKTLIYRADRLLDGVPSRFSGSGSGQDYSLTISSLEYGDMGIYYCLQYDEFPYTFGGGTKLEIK = 17.5
409B11E12 mouse-human chimeric antibody (antibody, V domains shown, also called mAb104-409B11E12) VH: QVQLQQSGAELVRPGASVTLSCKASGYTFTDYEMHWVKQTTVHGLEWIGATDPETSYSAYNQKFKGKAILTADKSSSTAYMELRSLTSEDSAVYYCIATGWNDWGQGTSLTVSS VL: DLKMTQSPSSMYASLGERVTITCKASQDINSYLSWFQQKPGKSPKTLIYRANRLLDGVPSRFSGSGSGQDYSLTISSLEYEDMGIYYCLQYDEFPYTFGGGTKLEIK = 24.4

Now consider the entry below.
[Q] Entry 409D4E10 mouse-human chimeric antibody (antibody, V domains shown, also called mAb112-409D4E10) VH: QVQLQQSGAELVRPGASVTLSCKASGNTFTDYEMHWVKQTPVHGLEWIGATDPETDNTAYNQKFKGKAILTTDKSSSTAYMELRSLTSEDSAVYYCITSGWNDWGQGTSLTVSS VL: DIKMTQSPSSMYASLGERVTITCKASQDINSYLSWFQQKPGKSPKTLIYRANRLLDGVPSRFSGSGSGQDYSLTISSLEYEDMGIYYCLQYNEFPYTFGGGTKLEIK : reported Inhibition rate (%) = ?
[A] 20.9
